Procedure details: Selectivity index, ratio of LD50 for dog DH82 cells to IC50 for Leishmania infantum MHOM/BR/70/BH46 promastigotes infected in dog DH82 cells
Assay type: toxicity, cell-based
Experimental parameters: read-out: Ratio LD50/IC50

- Structure string: "CC1(C)CC[C@]2(C(=O)OCc3cn(Cc4ccccc4[N+](=O)[O-])nn3)CC[C@]3(C)C(=CC[C@@H]4[C@@]5(C)CC[C@H](O)[C@@](C)(CO)[C@@H]5CC[C@]43C)[C@@H]2C1"
  selectivity ratio: 6.6
- Structure string: "CC1(C)CC[C@]2(C(=O)OCc3ccc(Br)cc3)CC[C@]3(C)C(=CC[C@@H]4[C@@]5(C)CC[C@H](O)[C@@](C)(CO)[C@@H]5CC[C@]43C)[C@@H]2C1"
  selectivity ratio: 6.9
- Structure string: "CC1(C)CC[C@]2(C(=O)OCc3cn(Cc4cccc(Br)c4)nn3)CC[C@]3(C)C(=CC[C@@H]4[C@@]5(C)CC[C@H](O)[C@@](C)(CO)[C@@H]5CC[C@]43C)[C@@H]2C1"
  selectivity ratio: 0.5
- Structure string: "CC1(C)CC[C@]2(C(=O)OCc3c(Cl)cccc3Cl)CC[C@]3(C)C(=CC[C@@H]4[C@@]5(C)CC[C@H](O)[C@@](C)(CO)[C@@H]5CC[C@]43C)[C@@H]2C1"
  selectivity ratio: 0.6
- Structure string: "CC1(C)CC[C@]2(C(=O)OCc3cn(Cc4ccc(F)cc4F)nn3)CC[C@]3(C)C(=CC[C@@H]4[C@@]5(C)CC[C@H](O)[C@@](C)(CO)[C@@H]5CC[C@]43C)[C@@H]2C1"
  selectivity ratio: 6
- Structure string: "COC(=O)CNC(=O)[C@]12CCC(C)(C)C[C@H]1C1=CC[C@@H]3[C@@]4(C)CC[C@H](O)[C@@](C)(CO)[C@@H]4CC[C@@]3(C)[C@]1(C)CC2"
  selectivity ratio: 1.8
- Structure string: "CC1(C)CC[C@]2(C(=O)O)CC[C@]3(C)C(=CC[C@@H]4[C@@]5(C)CC[C@H](O)[C@@](C)(CO)[C@@H]5CC[C@]43C)[C@@H]2C1"
  selectivity ratio: 10
- Structure string: "CC1(C)CC[C@]2(C(=O)NCc3cn(Cc4ccccc4[N+](=O)[O-])nn3)CC[C@]3(C)C(=CC[C@@H]4[C@@]5(C)CC[C@H](O)[C@@](C)(CO)[C@@H]5CC[C@]43C)[C@@H]2C1"
  selectivity ratio: 22.5
- Structure string: "CC1(C)CC[C@]2(C(=O)NCc3cn(Cc4ccc(Cl)cc4)nn3)CC[C@]3(C)C(=CC[C@@H]4[C@@]5(C)CC[C@H](O)[C@@](C)(CO)[C@@H]5CC[C@]43C)[C@@H]2C1"
  selectivity ratio: 2.6
- Structure string: "CC1(C)CC[C@]2(C(=O)OCc3cccc([N+](=O)[O-])c3)CC[C@]3(C)C(=CC[C@@H]4[C@@]5(C)CC[C@H](O)[C@@](C)(CO)[C@@H]5CC[C@]43C)[C@@H]2C1"
  selectivity ratio: 6.4
